Calls of active or inactive are those of the source.
The following compounds have recorded Kd on Serine/threonine-protein kinase Nek7 (Homo sapiens).
Sequence (Q8TDX7 whole entry): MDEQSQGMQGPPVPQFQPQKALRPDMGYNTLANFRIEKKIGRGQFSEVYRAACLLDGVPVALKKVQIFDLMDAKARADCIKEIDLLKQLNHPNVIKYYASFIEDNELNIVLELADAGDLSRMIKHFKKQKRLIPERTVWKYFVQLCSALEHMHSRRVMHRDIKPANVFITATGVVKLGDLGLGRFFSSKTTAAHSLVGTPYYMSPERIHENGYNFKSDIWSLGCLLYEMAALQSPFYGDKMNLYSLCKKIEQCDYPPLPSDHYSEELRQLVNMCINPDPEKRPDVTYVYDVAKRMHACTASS

// field: Kd; key: Cc1nc(N)sc1-c1ccnc(Nc2ccc(N3CCOCC3)cc2)n1 ; value = > 30 µM (inactive)

// field: Kd; key: OCCn1cc(-c2cnc3nnn(Cc4ccc5ncccc5c4)c3n2)cn1 ; value = > 30 µM (inactive)

// field: Kd; key: O=C1NC(=O)/C(=C/c2ccc3nccc(-c4ccncc4)c3c2)S1 ; value = > 30 µM (inactive)

// field: Kd; key: CCN1CCN(Cc2ccc(-c3cc4c(N[C@H](C)c5ccccc5)ncnc4[nH]3)cc2)CC1 ; value = > 30 µM (inactive)

// field: Kd; key: Cc1ccc(-n2nc(C(C)(C)C)cc2NC(=O)NCc2cc(F)ccc2Oc2ccc3c(cnn3CCO)c2)cc1 ; value = > 30 µM (inactive)

// field: Kd; key: CNC(=O)c1ccc(-c2cnc3ncc(Cc4ccc5ncccc5c4)n3n2)cc1F ; value = > 30 µM (inactive)

// field: Kd; key: O=C(O)[C@]1(Cc2cccc(Nc3nccs3)n2)CC[C@@H](Oc2cccc(Cl)c2F)CC1 ; value = > 30 µM (inactive)

// field: Kd; key: CC(C)Nc1cc(-c2c[nH]c(C(=O)N[C@H](CO)c3cccc(Cl)c3)c2)c(Cl)cn1 ; value = > 30 µM (inactive)

---

The following molecules have recorded Kd on Receptor-interacting serine/threonine-protein kinase 2 (Homo sapiens).
Sequence (O43353 whole entry): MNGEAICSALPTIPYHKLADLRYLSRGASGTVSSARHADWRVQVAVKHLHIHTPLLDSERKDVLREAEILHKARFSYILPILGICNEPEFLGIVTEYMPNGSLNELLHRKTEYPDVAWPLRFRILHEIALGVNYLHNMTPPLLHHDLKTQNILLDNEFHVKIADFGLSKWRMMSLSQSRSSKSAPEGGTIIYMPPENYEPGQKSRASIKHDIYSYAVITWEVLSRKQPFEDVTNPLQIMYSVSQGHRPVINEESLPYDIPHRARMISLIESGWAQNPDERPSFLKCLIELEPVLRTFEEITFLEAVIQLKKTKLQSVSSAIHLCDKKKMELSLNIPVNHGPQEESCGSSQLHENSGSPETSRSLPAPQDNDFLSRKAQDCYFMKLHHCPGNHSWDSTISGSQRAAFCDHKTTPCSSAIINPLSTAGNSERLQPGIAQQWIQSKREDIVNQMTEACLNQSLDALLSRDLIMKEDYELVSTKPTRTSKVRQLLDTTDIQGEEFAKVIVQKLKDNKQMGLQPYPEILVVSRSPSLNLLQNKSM
Calls of active or inactive are those of the source.

// field: Kd; key: CC[C@@H]1C(=O)N(C)c2cnc(Nc3ccc(C(=O)N[C@H]4CC[C@H](N5CCN(CC6CC6)CC5)CC4)cc3OC)nc2N1C(C)C [VOLASERTIB] ; value = > 30 µM (inactive)

// field: Kd; key: Cc1cc(-c2cc(O)ccc2Cl)cc2nnc(Nc3ccc(OCCN4CCCC4)cc3)nc12 ; value = 0.0009 µM (active)

// field: Kd; key: CNC(=O)c1ccc(-c2cnc3ncc(Cc4ccc5ncccc5c4)n3n2)cc1F [CAPMATINIB] ; value = > 30 µM (inactive)

// field: Kd; key: COc1cc(CCc2cc(NC(=O)c3ccc(N4C[C@@H](C)N[C@@H](C)C4)cc3)n[nH]2)cc(OC)c1 [AZD-4547] ; value = > 30 µM (inactive)

// field: Kd; key: Cc1ccc(NC(=O)c2ccc(CN3CC[C@H](N(C)C)C3)c(C(F)(F)F)c2)cc1Nc1nccc(-c2cncnc2)n1 [BAFETINIB] ; value = 1.47 µM (active)

// field: Kd; key: CO[C@H]1C[C@@H]2CC[C@@H](C)[C@@](O)(O2)C(=O)C(=O)N2CCCC[C@H]2C(=O)O[C@H]([C@H](C)C[C@@H]2CC[C@@H](OCCO)[C@H](OC)C2)CC(=O)[C@H](C)/C=C(\C)[C@@H](O)[C@@H](OC)C(=O)[C@H](C)C[C@H](C)/C=C/C=C/C=C/1C [EVEROLIMUS] ; value = > 30 µM (inactive)

---

Assignment: determine reported Kd for the given molecules.
Assayed target: Eukaryotic translation initiation factor 2-alpha kinase 1 (Homo sapiens, UniProt Q9BQI3); also: in the data inactive means no Kd found up to 30 µM
Sequence (Q9BQI3 whole entry): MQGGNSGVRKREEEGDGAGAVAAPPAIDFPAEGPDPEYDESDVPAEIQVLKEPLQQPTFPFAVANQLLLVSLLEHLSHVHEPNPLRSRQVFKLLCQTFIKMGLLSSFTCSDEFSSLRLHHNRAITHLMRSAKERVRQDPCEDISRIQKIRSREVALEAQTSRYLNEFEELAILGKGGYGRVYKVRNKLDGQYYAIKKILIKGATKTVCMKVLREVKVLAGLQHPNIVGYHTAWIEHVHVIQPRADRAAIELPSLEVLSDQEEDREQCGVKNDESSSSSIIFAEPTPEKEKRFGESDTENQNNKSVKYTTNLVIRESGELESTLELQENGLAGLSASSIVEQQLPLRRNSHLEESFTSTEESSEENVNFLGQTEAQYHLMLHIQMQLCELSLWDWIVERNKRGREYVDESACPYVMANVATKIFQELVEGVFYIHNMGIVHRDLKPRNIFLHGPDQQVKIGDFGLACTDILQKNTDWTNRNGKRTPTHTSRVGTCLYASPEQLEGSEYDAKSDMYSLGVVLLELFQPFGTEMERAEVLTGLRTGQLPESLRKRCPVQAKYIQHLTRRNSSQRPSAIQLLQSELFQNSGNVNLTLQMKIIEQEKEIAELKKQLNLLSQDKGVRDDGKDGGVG
Active and inactive are the calls of the source.

// field: Kd; key: C=CC(=O)N1CCC(Oc2cc3c(Nc4ccc(Cl)c(Cl)c4F)ncnc3cc2OC)CC1 ; value = > 30 µM (inactive)

// field: Kd; key: CCc1cnn2c(NCc3ccc[n+]([O-])c3)cc(N3CCCC[C@H]3CCO)nc12 ; value = > 30 µM (inactive)

// field: Kd; key: Cc1ccc(-n2nc(C(C)(C)C)cc2NC(=O)NCc2cc(F)ccc2Oc2ccc3c(cnn3CCO)c2)cc1 ; value = > 30 µM (inactive)

// field: Kd; key: CNS(=O)(=O)Nc1nccc(Cc2c(C)c3ccc(Oc4ncccn4)cc3oc2=O)c1F ; value = > 30 µM (inactive)

// field: Kd; key: CCn1c(=O)c(-c2cc[nH]n2)cc2c(C)nc(N)nc21 ; value = > 30 µM (inactive)

// field: Kd; key: CC(=O)Nc1cccc(-n2c(=O)n(C3CC3)c(=O)c3c(Nc4ccc(I)cc4F)n(C)c(=O)c(C)c32)c1 ; value = > 30 µM (inactive)

// field: Kd; key: O=C(c1ccc(F)c(F)c1Nc1ccc(I)cc1F)N1CC(O)([C@@H]2CCCCN2)C1 ; value = > 30 µM (inactive)

// field: Kd; key: CN1CCC(CNc2ccc3ncc(-c4cccc(OC(F)(F)F)c4)n3n2)CC1 ; value = > 30 µM (inactive)
